- System: E. coli 94474
- MEASUREMENT_PROTOCOL: microbe, parasite or virus in culture
- Format: cell-based, Escherichia coli
- SETTINGS: Escherichia coli, 18 h; E. coli 94474 (mcr-1 +); read-out: MICs of various antibiotics
MIC listing for selected compounds.
A number alone suffices; assume µg/mL.

COMPOUND	TARGET	VALUE_OBSERVED
NCC[C@H](O)C(=O)N[C@@H]1C[C@H](N)[C@@H](O[C@H]2O[C@H](CN)[C@@H](O)[C@H](O)[C@H]2O)[C@H](O)[C@H]1O[C@H]1O[C@H](CO)[C@@H](O)[C@H](N)[C@H]1O	E. coli 94474	2

## Input # return recorded MIC for entry O=C(N[C@H](CO)[C@H](O)c1ccc([N+](=O)[O-])cc1)C(Cl)Cl [Chloramphenicol, chloramphenicol, reference compound]
## Output 4

## Input Look up and report measured MIC for this entry: CN(C)[C@@H]1C(O)=C(C(N)=O)C(=O)[C@@]2(O)C(O)=C3C(=O)c4c(O)c(NC(=O)CN5CCCC5)cc(F)c4C[C@H]3C[C@@H]12
## Output 1

## Input Report MIC, nothing else, for this compound: C[C@@H](O)[C@H]1C(=O)N2C(C(=O)O)=C(SCCN=CN)C[C@H]12
## Output 0.25

## Input Identify MIC associated with the compound CN(C)c1cc(NC(=O)CNC(C)(C)C)c(O)c2c1C[C@H]1C[C@H]3[C@H](N(C)C)C(O)=C(C(N)=O)C(=O)[C@@]3(O)C(O)=C1C2=O
## Output 1

## Input # return recorded MIC for input COc1c(N2C[C@@H]3CCCN[C@@H]3C2)c(F)cc2c(=O)c(C(=O)O)cn(C3CC3)c12
## Output 16

## Input Look up and state reported MIC for CC(C)(O/N=C(\C(=O)N[C@@H]1C(=O)N2C(C(=O)[O-])=C(C[n+]3ccccc3)CS[C@H]12)c1csc(N)n1)C(=O)O
## Output 0.5

## Input Return MIC for the following compound: CN(C)c1ccc(O)c2c1C[C@H]1C[C@H]3[C@H](N(C)C)C(O)=C(C(N)=O)C(=O)[C@@]3(O)C(O)=C1C2=O
## Output 64

* * *

- System: MSSE 81388
- Type: cell-based, Staphylococcus epidermidis
- SETTINGS: 18 h
Non-standard residues stand in square brackets, D forms with d. Residues, ends and D or L forms follow the SMILES beside them. *: point of attachment. Lys(Me2) = CN(C)CCCC[C@H](N)C(=O)O; Octanoyl = CCCCCCCC(=O)*
MIC values by entry
Dear colleague, please return just the value in µg/mL, with no unit written.

MOLECULE	METRIC_NAME	VALUE_OBSERVED
CCCCCCCC(=O)NCCCC[C@H](NC(=O)CCCCCCC)C(=O)N[C@@H](CCCCN(C)C)C(=O)N[C@@H](CCCCN(C)C)C(=O)N[C@@H](CCCCN(C)C)C(=O)N[C@@H](CCCCN(C)C)C(N)=O [UTBLP 7] (Octanoyl-K(Octanoyl)[Lys(Me2)][Lys(Me2)][Lys(Me2)][Lys(Me2)]-NH2)	MIC	32
CCCCCCCC(=O)N[C@@H](CCCCNC)C(=O)NCCCN(CCCNC(=O)[C@H](CCCCNC)NC(=O)CCCCCCC)CC(=O)N[C@@H](CCCCNC)C(N)=O	MIC	64

Shifting focus to the molecule that follows.
## Input In one line, give reported MIC of the entry CCCCCCCC(=O)NCCCC[C@H](NC(=O)CCCCCCC)C(=O)N[C@@H](CCCCN)C(=O)N[C@@H](CCCCN)C(=O)N[C@@H](CCCCN)C(=O)N[C@@H](CCCCN)C(N)=O [UTBLP 5] (Octanoyl-K(Octanoyl)KKKK-NH2) .
## Output 16
